All values here come from patent US20090325936A1.

test-system: human CB2 (Homo sapiens, UniProt P34972)
Sequence (P34972 whole entry): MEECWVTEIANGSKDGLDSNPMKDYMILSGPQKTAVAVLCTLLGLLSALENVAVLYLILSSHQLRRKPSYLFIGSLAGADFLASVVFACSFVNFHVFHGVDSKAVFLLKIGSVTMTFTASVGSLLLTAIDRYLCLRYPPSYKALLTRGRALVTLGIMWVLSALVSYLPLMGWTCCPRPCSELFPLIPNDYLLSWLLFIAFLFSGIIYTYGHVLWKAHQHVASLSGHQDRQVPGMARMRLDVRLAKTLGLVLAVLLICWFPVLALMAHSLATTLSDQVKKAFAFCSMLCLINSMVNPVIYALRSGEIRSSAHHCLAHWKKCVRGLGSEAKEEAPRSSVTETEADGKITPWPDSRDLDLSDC
experiment-notes: Cyclic AMP assay (HTRF), CHO cells expressing human CB2
Format: cell-based
measurement-setup: CHO, read-out: CB2 Emax
Protocol: Chinese Hamster Ovary cells (CHO) expressing human CB1 or human CB2 (3.3×10^5 cells/ml) were preincubated for 15 min at room temperature with tested agonist and 3-isobutyl-1-methylxanthine (IBMX; 200 μM) in phosphate buffered saline containing 1 mg/ml BSA (assay buffer) followed by 30 min incubation with forskolin in a total volume of 10 μl. […]
property: Emax (%)
All answers are understood in %, so give the number only.

>>> value_observed("O=C(Nc1ccccc1Cl)c1nc(CN2CCC(O)C2)c2ccccn12 (stereo not drawn)")
69.9

stdin: Quote Emax with test system human CB2 (Homo sapiens, UniProt P34972) for O=C(NC12CC3CC(CC(C3)C1)C2)c1nc(Oc2cccc(F)c2)n2ccccc12
stdout: 91.5

====

Listing: EC50 of selected compounds
test-system: human CB2 (Homo sapiens)
experiment-notes: Cyclic AMP assay (HTRF), CHO cells expressing human CB2
Assay type: cell-based
Give just the number in nM; leave the unit off.

As a guide, the following entries are already answered.
>>> value_observed("O=C(NC(C1CC1)C1CC1)c1nc(-c2ccc(F)cc2)c2ccccn12")
2.01
>>> value_observed("O=C(NC12CC3CC(CC(C3)C1)C2)c1nc(C(O)c2cccnc2)n2ccccc12 (stereo not drawn)")
46.2
>>> value_observed("O=C(Nc1cccc2cnccc12)c1nc(C(=O)N2CCC(F)CC2)n2ccccc12")
23.5
>>> value_observed("O=C(c1ccc2ccccc2c1)c1nc(CN2CCOCC2)c2ccccn12")
2.28
>>> value_observed("O=C(NC1(c2ccccc2)CC1)c1nc(-c2cccc(F)c2)n2ccccc12")
62

stdin: Hello, please tell me recorded EC50 for this one: O=C(NC12CC3CC(CC(C3)C1)C2)c1nc(C2CCCN2)n2ccccc12 (stereo not drawn)
stdout: 5.93

stdin: Fill in reported EC50 for this entry: CC(NC(=O)c1nc(Cl)c2ccccn12)c1ccccc1Cl (stereo not drawn)
stdout: 18.4

stdin: Please give measured EC50 of the following entry: O=C(NC12CC3CC(CC(C3)C1)C2)c1nc(Oc2cccc(F)c2)n2ccccc12
stdout: 1.92

stdin: Write down EC50 measured for item CC(NC(=O)c1nc(N2CCOCC2)n2ccccc12)C(C)(C)C (stereo not drawn)
stdout: 5.2

====

test-system: human CB2 (Homo sapiens, UniProt P34972)
experiment-notes: Cyclic AMP assay (HTRF), CHO cells expressing human CB2
Format: cell-based
measurement-setup: agonist, forskolin-stimulated cAMP in CHO cells expressing human CB2; text calls the value IP; read-out: CB2 cAMP
property: EC50

>>> value_observed("O=C(Nc1ccccc1Cl)c1nc(CN2CCC(O)C2)c2ccccn12 (stereo not drawn)")
"0.261 µM"
>>> value_observed("O=C(NCC1CCOCC1)c1nc(-c2cccnc2)n2ccccc12")
"6.43 µM"

Now consider a different molecule.
stdin: Name the recorded EC50 of the item O=C(c1cccc(Cl)c1)c1nc(-c2ccc(F)cc2)n2ccccc12 in your answer.
stdout: 0.176 µM

====

test-system: human CB1 (Homo sapiens, UniProt P21554)
Sequence (P21554 whole entry): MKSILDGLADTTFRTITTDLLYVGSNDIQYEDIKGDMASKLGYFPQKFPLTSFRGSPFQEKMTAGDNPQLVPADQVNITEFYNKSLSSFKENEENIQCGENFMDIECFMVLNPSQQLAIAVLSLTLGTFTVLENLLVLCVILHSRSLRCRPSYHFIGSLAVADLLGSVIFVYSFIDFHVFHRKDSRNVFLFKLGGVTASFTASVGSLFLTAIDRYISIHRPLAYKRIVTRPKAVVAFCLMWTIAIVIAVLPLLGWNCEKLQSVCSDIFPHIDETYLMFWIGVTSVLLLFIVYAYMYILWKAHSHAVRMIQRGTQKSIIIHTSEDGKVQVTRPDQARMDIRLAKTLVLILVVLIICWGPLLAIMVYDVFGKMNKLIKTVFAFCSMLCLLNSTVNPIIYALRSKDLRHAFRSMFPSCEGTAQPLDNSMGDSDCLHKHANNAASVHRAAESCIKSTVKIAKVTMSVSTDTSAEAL
experiment-notes: Cyclic AMP assay (HTRF), CHO cells expressing human CB1
Method: Chinese Hamster Ovary cells (CHO) expressing human CB1 or human CB2 (3.3×10^5 cells/ml) were preincubated for 15 min at room temperature with tested agonist and 3-isobutyl-1-methylxanthine (IBMX; 200 μM) in phosphate buffered saline containing 1 mg/ml BSA (assay buffer) followed by 30 min incubation with forskolin in a total volume of 10 μl. […]
Each entry below carries its reported EC50.
# unit: µM | format: bare number

>>> value_observed("O=C(Nc1cccc2cnccc12)c1nc(C(=O)N2CCC(F)CC2)n2ccccc12")
2.15

Continue with the next molecule.
stdin: Would you please give the reported EC50 of O=C(NC12CC3CC(CC(C3)C1)C2)c1nc(Oc2cccc(F)c2)n2ccccc12 with human CB1 (Homo sapiens, UniProt P21554)?
stdout: 0.14
